Origin of values: patent US20250243289A1

Molecular target: T1, human TL1A, endogenous in human whole blood (human, UniProt O95150 72-251, limits assumed)
T1 sequence (looked up): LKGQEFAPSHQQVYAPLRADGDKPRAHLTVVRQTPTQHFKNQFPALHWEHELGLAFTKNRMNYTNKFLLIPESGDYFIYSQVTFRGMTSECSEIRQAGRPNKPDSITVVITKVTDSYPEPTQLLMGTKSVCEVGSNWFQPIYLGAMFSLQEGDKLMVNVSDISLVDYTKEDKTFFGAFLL
Assay: cell-based or functional assay
hey, just use label 1 if measured % Inhibition at 10 nM Ig (interferon gamma release in human blood) is less than 70%, otherwise label 0

[[record]]
binder = "A147 (antibody, human IgG1, V domains shown) VH: QVQLVQSGAEVKKPGASVKVSCKASGFDIQDTYMHWVKQRPGQGLEWMGRIEPASGHIKYDPKFQGRVTMTRDTSTSTVYMELSSLRSEDTAVYYCARSGGLPDWWGQGTTVTVSS VL: EIVLTQSPGTLSLSPGERATLSCRASSSVSYMYWYQQKPGQAPRPLIYATSNLASGIPDRFSGSGSGTDFTLTISRLEPEDFAVYYCQQWEGNPRTFGGGTKLEIK"
class = "label 0"

[[record]]
binder = "A219 (antibody, V domains shown) VH: QVQLVQSGAEVKKPGASVKVSCKASGFDIQDTYMHWVKQRPGQGLEWMGRIDPASGHTKYDPKFQVRVTITRDTSTSTVYLELSSLRSEDTAVYYCARSGGLPDVWGQGTTVTVSS VL: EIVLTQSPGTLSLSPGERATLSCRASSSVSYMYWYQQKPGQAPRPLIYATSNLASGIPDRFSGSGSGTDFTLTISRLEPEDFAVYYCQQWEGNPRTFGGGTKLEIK"
class = "label 0"

[[record]]
binder = "A217 (antibody, human IgG1, V domains shown) VH: QVQLVQSGAEVKKPGASVKVSCKASGFDIQDTYMHWVKQRPGQGLEWMGRIDPASGHTKYDPKFQVRVTITRDTSTSTVYMELSSLRSEDTAVYYCARSGGLPDVWGQGTTVTVSS VL: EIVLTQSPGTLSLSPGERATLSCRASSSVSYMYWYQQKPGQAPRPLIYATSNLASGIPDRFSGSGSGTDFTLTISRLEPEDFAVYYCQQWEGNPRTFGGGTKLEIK"
class = "label 0"

[[record]]
binder = "A220 (antibody, human IgG1, V domains shown) VH: QVQLVQSGAEVKKPGASVKVSCKASGFDIQDTYMHWVKQRPGQGLEWMGRIDPASGHTKYDPKFQVRVTMTRDTSTSTAYLELSSLRSEDTAVYYCARSGGLPDVWGQGTTVTVSS VL: EIVLTQSPGTLSLSPGERATLSCRASSSVSYMYWYQQKPGQAPRPWIYATSNLASGIPDRFSGSGSGTDFTLTISRLEPEDFAVYYCQQWEGNPRTFGGGTKLEIK"
class = "label 1"

